Reported pKd values for a set of binders
Target: Human CD33 R69G (human, UniProt P20138 18-259)
Sequence (P20138 18-259 R69G): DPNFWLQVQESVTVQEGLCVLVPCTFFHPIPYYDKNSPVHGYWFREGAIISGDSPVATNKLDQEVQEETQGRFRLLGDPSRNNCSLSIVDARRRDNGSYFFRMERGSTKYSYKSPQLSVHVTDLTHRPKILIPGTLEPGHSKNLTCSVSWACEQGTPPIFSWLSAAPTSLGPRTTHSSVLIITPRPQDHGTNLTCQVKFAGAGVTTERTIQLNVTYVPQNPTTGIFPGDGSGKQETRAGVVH
Assay: SPR captured Fab
Friendly reminder that pKd comes from taking -log10 of the concentration in mol/L.

Examples with answers:
BINDER	RECORDED RESULT
ADI-10157 Fab (Fab, V domains shown, Fab fragment; also called Ab13) VH: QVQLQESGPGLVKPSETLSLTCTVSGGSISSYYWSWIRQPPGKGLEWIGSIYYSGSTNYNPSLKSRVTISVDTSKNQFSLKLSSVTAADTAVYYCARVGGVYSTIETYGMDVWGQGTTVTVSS VL: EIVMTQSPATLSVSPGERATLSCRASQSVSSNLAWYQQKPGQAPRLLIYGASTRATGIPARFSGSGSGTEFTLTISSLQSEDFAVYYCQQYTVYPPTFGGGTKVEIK	7.75
ADI-10164 Fab (Fab, V domains shown, Fab fragment; also called Ab18) VH: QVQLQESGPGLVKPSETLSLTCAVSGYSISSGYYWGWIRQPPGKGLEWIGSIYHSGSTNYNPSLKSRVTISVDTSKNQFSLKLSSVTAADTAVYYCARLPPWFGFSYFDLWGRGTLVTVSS VL: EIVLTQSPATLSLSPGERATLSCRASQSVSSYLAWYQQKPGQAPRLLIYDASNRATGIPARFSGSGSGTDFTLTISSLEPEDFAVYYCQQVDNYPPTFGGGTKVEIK	6.95

Input line: I am curious: what pKd value has been reported for ADI-11830 Fab (Fab, V domains shown, Fab fragment; also called Ab9) VH: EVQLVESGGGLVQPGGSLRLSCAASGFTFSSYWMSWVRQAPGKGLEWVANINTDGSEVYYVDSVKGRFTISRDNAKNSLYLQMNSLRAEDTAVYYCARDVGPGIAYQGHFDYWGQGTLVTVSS VL: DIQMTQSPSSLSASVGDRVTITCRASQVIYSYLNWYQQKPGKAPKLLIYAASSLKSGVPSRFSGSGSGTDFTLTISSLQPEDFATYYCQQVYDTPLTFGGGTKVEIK ?
Output line: 8.53

Reference source: patent US20250154261A1
